Method: UV study of Michael adduct formation with DTT
Assay type: physicochemical
Test Context: 0.1 mM compound, 0.1 mM DTT, phosphate buffer saline-1% ethanol (pH 7.4), rt
Measurement Type: A (absorbance) With DTT (1 equiv)
Write the value as a bare number.

Some compounds with recorded A (absorbance) With DTT (1 equiv):
C#CC12C=C(C#N)C(=O)C=C1CCC2 (centres unmarked)
0.281
C#CC1(C=C)C=CC(=O)C(C#N)=C1 (centres unmarked)
0.369
C#CC1(CC)C=CC(=O)C(C#N)=C1 (centres unmarked)
0.135

Next up:
Q: # query: A (absorbance) With DTT (1 equiv) of entry C#CC1(C#C)C=CC(=O)C(C#N)=C1
Result: 0.614

---

Measured melting point by item

For orientation, consider the following solved cases.
C#CC1(C=C)C=CC(=O)C(C#N)=C1 (centres unmarked)
76 to 77 °C
C#CC1(C#C)C=CC(=O)C(C#N)=C1
110 to 111 °C
C#CC12C=C(C#N)C(=O)C=C1c1ccccc1C2 (centres unmarked)
202 to 203 °C
C#CC12C=C(C#N)C(=O)C=C1c1c(C)cccc1CC2 (centres unmarked)
195.5 to 197 °C

Now for the compound whose melting point we want.
Q: Which measured melting point value corresponds to C#CC12C=C(C#N)C(=O)C=C1CCC2 (centres unmarked) ?
Result: 107 to 108 °C

---

Tested on: iNOS
Measurement Type: pIC50
The value called pIC50 is obtained by taking minus log10 of the concentration in mol/L.

Here's what some known entries look like.
C#C[C@]12C=C(C#N)C(=O)C=C1[C@@]1(C)C=C(C#N)C(=O)C(C)(C)[C@@H]1CC2 (racemic) [TBE-31 (1)]
9.00
C#CC12C=C(C#N)C(=O)C=C1c1c(Cl)cccc1C2 (centres unmarked) [Compound 15]
6.10
C#CC12C=C(C#N)C(=O)C=C1CCC2 (centres unmarked) [Compound 7]
6.80
C#CC1(C=C)C=CC(=O)C(C#N)=C1 (centres unmarked) [Compound 5]
7.80

// next entry
Q: Query the reported pIC50 for iNOS; item: CC1(C)CC[C@]2(C(=O)O)CC[C@]3(C)[C@H](C(=O)C=C4[C@@]5(C)C=C(C#N)C(=O)C(C)(C)[C@@H]5CC[C@]43C)[C@@H]2C1 [CDDO, reference compound]
Result: 7.64

Attribution: patent US10233146B2
